Attribution: patent US10570179B2

Tested on: S. aureus USA 300
experimentalDetails: Minimal inhibitory concentration, microbroth dilution
Assay type: cell-based
statedConditions: Staphylococcus aureus, USA300; MIC; read-out: Minimal Inhibitory Concentrations (μM) S. aureus USA 300
Numbered stars: 1 amine (or outer) side, 2 acyl side, 3 side chain; on linkers, the order of the positions; unused ones are H or OH. Bridge positions count the residues as written; N and C are the ends. Square brackets hold non-standard residues; d marks the D form. Peptide text beside a SMILES is read from it. * marks the point of attachment. Phe(3-Me) = Cc1cccc(C[C@H](N)C(=O)O)c1; NH(4-Cl-2-F-phenyl) = Fc1cc(Cl)ccc1N*; Pro(4R-Me) = C[C@H]1CN[C@H](C(=O)O)C1; X1 = O=C([C@@H]1CSCCN1[*:1])[*:2]; Hyp = O=C(O)[C@@H]1C[C@@H](O)CN1; aThr = C[C@H](O)[C@H](N)C(=O)O; CO = O=C([*:1])[*:2]
measurementLabel: MIC

CCc1ccc(NC(=O)N[C@@H](Cc2cccc(C)c2)C(=O)N[C@H]2COC(=O)[C@@H]3C[C@@H](C)CN3C(=O)[C@H](C)NC(=O)[C@@H]3CCCCN3C(=O)[C@@H]3CCCN3C2=O)cc1 | 0.313 µM
CCc1ccc(NC(=O)N[C@@H](Cc2cccc(C)c2)C(=O)N[C@H]2COC(=O)[C@@H]3C[C@H](C)CN3C(=O)[C@H](C)NC(=O)[C@@H]3CCCCN3C(=O)[C@@H]3CCCN3C2=O)cc1 | 0.625 µM
Cc1cccc(C[C@H](NC(=O)Nc2ccc(Cl)cc2F)C(=O)N[C@@H]2C(=O)N3C[C@H](O)C[C@H]3C(=O)N3CCSC[C@H]3C(=O)N[C@@H](C)C(=O)N3C[C@H](C)C[C@H]3C(=O)O[C@H]2C)c1 [Compound 41] ({NH(4-Cl-2-F-phenyl)-CO}-[Phe(3-Me)][aThr][Hyp][X1]A[Pro(4R-Me)]; ester 2-C) | 0.31 µM
Cc1cccc(C[C@H](NC(=O)Nc2ccc(Cl)cc2F)C(=O)N[C@H]2COC(=O)[C@@H]3C[C@@H](C)CN3C(=O)[C@H](C)NC(=O)[C@@H]3CCCCN3C(=O)[C@@H]3CCCN3C2=O)c1 | 0.313 µM

Then this compound:
## Input Entry under review: Cc1cccc(C[C@H](NC(=O)Nc2ccc3c(c2)OCCO3)C(=O)N[C@H]2COC(=O)[C@@H]3C[C@@H](C)CN3C(=O)[C@H](C)NC(=O)[C@@H]3CCCCN3C(=O)[C@@H]3CCCN3C2=O)c1 . Reported MIC?
## Output 5 µM
